- Measured Target: T1, β-catenin (UniProt P35222 1-781, limits assumed)
- T1 construct: also called beta-catenin
- T1 sequence (looked up): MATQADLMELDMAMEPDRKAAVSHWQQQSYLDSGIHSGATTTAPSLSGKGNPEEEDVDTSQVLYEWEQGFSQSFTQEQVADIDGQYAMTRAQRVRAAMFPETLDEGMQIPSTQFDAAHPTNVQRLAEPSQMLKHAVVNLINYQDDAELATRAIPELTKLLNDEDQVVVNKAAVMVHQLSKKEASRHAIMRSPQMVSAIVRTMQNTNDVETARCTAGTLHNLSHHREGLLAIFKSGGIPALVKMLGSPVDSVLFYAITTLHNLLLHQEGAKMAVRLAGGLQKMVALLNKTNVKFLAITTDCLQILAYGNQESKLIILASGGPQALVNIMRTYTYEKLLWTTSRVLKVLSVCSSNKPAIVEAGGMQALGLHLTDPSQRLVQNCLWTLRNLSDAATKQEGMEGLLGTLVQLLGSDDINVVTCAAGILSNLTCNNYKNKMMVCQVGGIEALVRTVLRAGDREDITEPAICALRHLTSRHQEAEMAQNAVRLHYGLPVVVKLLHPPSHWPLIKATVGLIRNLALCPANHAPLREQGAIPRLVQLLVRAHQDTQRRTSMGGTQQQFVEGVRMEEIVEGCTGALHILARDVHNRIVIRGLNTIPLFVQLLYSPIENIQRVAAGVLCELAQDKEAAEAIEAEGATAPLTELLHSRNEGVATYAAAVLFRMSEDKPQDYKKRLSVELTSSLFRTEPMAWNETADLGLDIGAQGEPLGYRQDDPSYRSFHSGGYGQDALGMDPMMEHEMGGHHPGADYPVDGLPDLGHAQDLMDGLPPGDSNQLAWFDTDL
- Method: ALPHA Screen (BCL9/β-catenin);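 further: bead proximity readout with the polypeptide linked to donor beads and β-catenin fixed on acceptor beads, their binding bringing the beads close enough to emit signal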
pIC50: −log10 of the molar value. Bridges are numbered along the chain shown (N, C = ends). Primed or numbered codes have the meaning given here. Where no end group is shown, it is not given here. [ ]: non-standard residue; d: D form. The star is where a group is joined. S5′ = (S)-2-(4'-pentenyl)alanine, olefinic stapling residue closed by ring-closing metathesis; NMeQ′ = N-methylglutamine (N-alpha-methyl, stereo named both D and L in the filing); Phe(3,4-Cl2) = N[C@@H](Cc1ccc(Cl)c(Cl)c1)C(=O)O; PEG4″ = PEG4 (tetraethylene glycol) spacer; 2Nal = N[C@@H](Cc1ccc2ccccc2c1)C(=O)O; pentenylAla = 2-(4'-pentenyl)alanine; Palmitoyl = CCCCCCCCCCCCCCCC(=O)*; Ala(cPr) = N[C@@H](CC1CC1)C(=O)O; hArg = N=C(N)NCCCC[C@H](N)C(=O)O; NMeQ = CN[C@@H](CCC(N)=O)C(=O)O; dNMeQ = CN[C@H](CCC(N)=O)C(=O)O; Cha = N[C@@H](CC1CCCCC1)C(=O)O; Cba = N[C@@H](CC1CCC1)C(=O)O; S5 = C=CCCC[C@](C)(N)C(=O)O; βAla = NCCC(=O)O
Each record's class is read off its pIC50 using these ranges: low (below 5), moderate (5 to below 6), high (6 or more)

[[record]]
binder = "{Palmitoyl-PEG4″}-H[hArg]QRSLQTLR[S5]IQR[S5][Cha][2Nal]-NH2 (staple 11-15) [SEQ ID NO: 209]"
group = "high"

[[record]]
binder = "HOCH2CH2CO-LQTLR[S5]IQR[S5][Cba][2Nal]-NH2 (staple 6-10; not fully specified (residue 2); printed as L(N-methylQ)TLRXIQRX(CBA)(2-Nal)) [SEQ ID NO: 120]"
group = "moderate"

[[record]]
binder = "Ac-HR[NMeQ′]RSL[NMeQ′]TLR[S5]IQR[S5][Phe(3,4-Cl2)][2Nal]-NH2 (staple 11-15; not fully specified; printed as HR(N-methylQ)RSL(N-methylQ)TLRXIQRX(3,4-diCl-Ph)(2-Nal), X/X stapled, (S) α-methyl, N-terminal Ac, C-terminal NH2) [SEQ ID NO: 203]"
group = "high"

[[record]]
binder = "Ac-HRQRS[Cha][NMeQ]TLR[S5]IQR[S5][Cha][2Nal]-NH2 (staple 11-15; also: N-MeGln at 7: D or L (both stated)) [SEQ ID NO: 185]"
group = "high"

[[record]]
binder = "Ac-HRQRSLQTL[hArg][S5]IQR[S5][Cba][2Nal]-NH2 (staple 11-15) [SEQ ID NO: 170]"
group = "high"

[[record]]
binder = "Ac-HR[NMeQ]RSL[NMeQ]TLR[S5]IQR[S5][Cba][2Nal]-NH2 (staple 11-15) [SEQ ID NO: 155]"
group = "high"

[[record]]
binder = "R[pentenylAla][Ala(cPr)][dNMeQ][pentenylAla][Ala(cPr)]R[pentenylAla]IQR[pentenylAla][Ala(cPr)][2Nal][βAla][βAla] (staple 8-12, 2-5) [SEQ ID NO: 89]"
group = "moderate"

[[record]]
binder = "Ac-LQTLR[S5′]IQE[S5′]L[2Nal]-NH2 (staple 6-10) [SEQ ID NO: 99]"
group = "low"

[[record]]
binder = "Ac-[Cba]QTLR[S5]IQR[S5][Cba][2Nal]-NH2 (staple 6-10) [SEQ ID NO: 113]"
group = "moderate"

[[record]]
binder = "LQTLRDIQRML[2Nal] [SEQ ID NO: 51]"
group = "moderate"

[[record]]
binder = "Ac-HRQRSLQTLR[S5]IQR[S5][Cba][2Nal]-NH2 (staple 11-15) [SEQ ID NO: 147]"
group = "high"

[[record]]
binder = "Ac-LQTLK[S5]IQR[S5]L[2Nal]-NH2 (staple 6-10) [SEQ ID NO: 100]"
group = "low"

[[record]]
binder = "Ac-LQTAR[S5]IQR[S5]L[2Nal]-NH2 (staple 6-10) [SEQ ID NO: 75]"
group = "moderate"

[[record]]
binder = "LQTLRDIQRML[2Nal]PD [SEQ ID NO: 53]"
group = "low"

[[record]]
binder = "Ac-RSLQTLR[S5]IQR[S5]L[2Nal]-NH2 (staple 8-12; not fully specified; printed as RSLQTLRXIQRXL(2-Nal)) [SEQ ID NO: 4]"
group = "moderate"


Entry source: patent US20200262867A1
